Tested on: Enterococcus faecium
test-protocol: Antibacterial activity against Enterococcus faecium 14-2 after 18 to 24 hrs by two-fold serial dilution method
Type: functional

# molecule, target-desc, scale-unit, MIC
measured = [
    ("O=C(O)c1cn2c3c(c(N4C/C(=N/OCc5ccccc5)C(CNC5CC5)C4)c(F)cc3c1=O)OC[C@@H]2CF (some centres not stated)", "Enterococcus faecium", "µg/mL", 1),
    ("CO/N=C1/CN(c2nc3c(cc2F)c(=O)c(C(=O)O)cn3-c2nc(N)c(F)cc2F)CC1CNC1CC1 (configuration not stated)", "Enterococcus faecium", "µg/mL", 32),
    ("CO/N=C1/CN(c2c(F)cc3c(=O)c(C(=O)O)cn4c3c2OC[C@@H]4C)CC1(C)CNC1CC1 (some centres not stated)", "Enterococcus faecium", "µg/mL", 4),
    ("CC1(CNC2CC2)CN(c2nc3c(cc2F)c(=O)c(C(=O)O)cn3C2CC2)C/C1=N/OCc1ccccc1 (configuration not stated)", "Enterococcus faecium", "µg/mL", 4),
    ("CCO/N=C1/CN(c2nc3c(cc2F)c(=O)c(C(=O)O)cn3C2CC2)CC1CNC1CC1 (configuration not stated)", "Enterococcus faecium", "µg/mL", 32),
    ("CCO/N=C1/CN(c2nc3c(cc2F)c(=O)c(C(=O)O)cn3C2CC2)CC1(C)CNC1CC1 (configuration not stated)", "Enterococcus faecium", "µg/mL", 4),
    ("CCO/N=C1/CN(c2c(F)cc3c(=O)c(C(=O)O)cn4c3c2OC[C@@H]4C)CC1(C)CNC1CC1 (some centres not stated)", "Enterococcus faecium", "µg/mL", 16),
    ("CO/N=C1/CN(c2nc3c(cc2F)c(=O)c(C(=O)O)cn3-c2nc(N)c(F)cc2F)CC1(C)CNC1CC1 (configuration not stated)", "Enterococcus faecium", "µg/mL", 64),
    ("C[C@H]1COc2c(N3CCN(C)CC3)c(F)cc3c(=O)c(C(=O)O)cn1c23.C[C@H]1COc2c(N3CCN(C)CC3)c(F)cc3c(=O)c(C(=O)O)cn1c23.O", "Enterococcus faecium", "µg/mL", 32),
    ("CO/N=C1/CN(c2nc3c(cc2F)c(=O)c(C(=O)O)cn3[C@@H]2C[C@@H]2F)CC1(C)CNC1CC1 (some centres not stated)", "Enterococcus faecium", "µg/mL", 4),
    ("CC1(CNC2CC2)CN(c2nc3c(cc2F)c(=O)c(C(=O)O)cn3[C@@H]2C[C@@H]2F)C/C1=N/OCc1ccccc1 (some centres not stated)", "Enterococcus faecium", "µg/mL", 16),
    ("CCO/N=C1/CN(c2nc3c(cc2F)c(=O)c(C(=O)O)cn3[C@@H]2C[C@@H]2F)CC1(C)CNC1CC1 (some centres not stated)", "Enterococcus faecium", "µg/mL", 4),
]

----------
Test system: Staphylococcus aureus
test-protocol: Antibacterial activity against methicillin-resistant Staphylococcus aureus 14-5 after 18 to 24 hrs by two-fold serial dilution method
Format: functional
A collection of compounds and their measured MIC

# compound, MIC [µg/mL]
records = [
    ("CO/N=C1/CN(c2nc3c(cc2F)c(=O)c(C(=O)O)cn3C2CC2)CC1CNC1CC1 (stereo unspecified)", 8),
    ("CCO/N=C1/CN(c2c(F)cc3c(=O)c(C(=O)O)cn([C@@H]4C[C@@H]4F)c3c2OC)CC1CNC1CC1 (stereo partly specified)", 16),
    ("CO/N=C1/CN(c2nc3c(cc2F)c(=O)c(C(=O)O)cn3-c2nc(N)c(F)cc2F)CC1CNC1CC1 (stereo unspecified)", 16),
    ("C[C@H]1COc2c(N3CCN(C)CC3)c(F)cc3c(=O)c(C(=O)O)cn1c23.C[C@H]1COc2c(N3CCN(C)CC3)c(F)cc3c(=O)c(C(=O)O)cn1c23.O", 8),
    ("CO/N=C1/CN(c2c(F)cc3c(=O)c(C(=O)O)cn4c3c2OC[C@@H]4C)CC1CNC1CC1 (stereo partly specified)", 64),
    ("CO/N=C1/CN(c2nc3c(cc2F)c(=O)c(C(=O)O)cn3-c2nc(N)c(F)cc2F)CC1(C)CNC1CC1 (stereo unspecified)", 32),
    ("CO/N=C1/CN(c2c(F)cc3c(=O)c(C(=O)O)cn4c3c2OC[C@@H]4CF)CC1(C)CNC1CC1 (stereo partly specified)", 4),
    ("CCO/N=C1/CN(c2nc3c(cc2F)c(=O)c(C(=O)O)cn3[C@@H]2C[C@@H]2F)CC1(C)CNC1CC1 (stereo partly specified)", 2),
    ("O=C(O)c1cn([C@@H]2C[C@@H]2F)c2nc(N3C/C(=N/OCc4ccccc4)C(CNC4CC4)C3)c(F)cc2c1=O (stereo partly specified)", 8),
    ("CCO/N=C1/CN(c2nc3c(cc2F)c(=O)c(C(=O)O)cn3-c2nc(N)c(F)cc2F)CC1(C)CNC1CC1 (stereo unspecified)", 64),
    ("CC1(CNC2CC2)CN(c2nc3c(cc2F)c(=O)c(C(=O)O)cn3-c2nc(N)c(F)cc2F)C/C1=N/OCc1ccccc1 (stereo unspecified)", 32),
    ("CCO/N=C1/CN(c2c(F)cc3c(=O)c(C(=O)O)cn4c3c2OC[C@@H]4C)CC1(C)CNC1CC1 (stereo partly specified)", 16),
    ("Nc1nc(-n2cc(C(=O)O)c(=O)c3cc(F)c(N4C/C(=N/OCc5ccccc5)C(CNC5CC5)C4)nc32)c(F)cc1F (stereo unspecified)", 8),
    ("CO/N=C1/CN(c2nc3c(cc2F)c(=O)c(C(=O)O)cn3[C@@H]2C[C@@H]2F)CC1(C)CNC1CC1 (stereo partly specified)", 2),
    ("CO/N=C1/CN(c2nc3c(cc2F)c(=O)c(C(=O)O)cn3[C@@H]2C[C@@H]2F)CC1CNC1CC1 (stereo partly specified)", 8),
    ("CC1(CNC2CC2)CN(c2nc3c(cc2F)c(=O)c(C(=O)O)cn3[C@@H]2C[C@@H]2F)C/C1=N/OCc1ccccc1 (stereo partly specified)", 16),
]
